- experimental-system: endogenous CETP from serum (Homo sapiens)
- Construct: yielding a concentration of approximately 15 nM endogenous CETP in the assay; from tissue; host or cells: human serum
- Sequence (P11597 18-493): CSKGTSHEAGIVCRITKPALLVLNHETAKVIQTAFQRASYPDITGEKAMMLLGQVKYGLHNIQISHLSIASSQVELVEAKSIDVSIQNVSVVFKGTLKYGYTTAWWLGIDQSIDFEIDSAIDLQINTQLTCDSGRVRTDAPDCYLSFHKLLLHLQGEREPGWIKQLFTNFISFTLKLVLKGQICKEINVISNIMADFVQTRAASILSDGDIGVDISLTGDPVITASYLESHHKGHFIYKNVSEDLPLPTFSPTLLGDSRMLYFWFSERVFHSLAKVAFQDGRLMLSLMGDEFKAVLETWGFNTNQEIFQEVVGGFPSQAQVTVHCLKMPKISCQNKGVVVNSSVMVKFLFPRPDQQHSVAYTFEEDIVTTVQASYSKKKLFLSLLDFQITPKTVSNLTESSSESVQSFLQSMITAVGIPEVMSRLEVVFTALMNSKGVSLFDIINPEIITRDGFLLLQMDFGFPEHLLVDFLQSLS
- measurement-protocol: RTA assay in 95% human serum (CETP-catalyzed CE and TG transfer, endogenous CETP from serum)
- Assay type: biochemical
- run-conditions: read-out: RTA (95% HS)
measurement-name: IC50 (µM)
Enter your answer as a number in µM; do not include the unit.

Measured IC50, `COc1ccc(-c2ccc(C(=O)O)cc2C)cc1-c1ccc(C(F)(F)F)cc1CN1C(=O)S[C@H](c2cc(C(F)(F)F)cc(C(F)(F)F)c2)[C@@H]1C` : 0.062
